Target: tryptophan synthase (Escherichia coli)
Sequence (P0A879 2-397): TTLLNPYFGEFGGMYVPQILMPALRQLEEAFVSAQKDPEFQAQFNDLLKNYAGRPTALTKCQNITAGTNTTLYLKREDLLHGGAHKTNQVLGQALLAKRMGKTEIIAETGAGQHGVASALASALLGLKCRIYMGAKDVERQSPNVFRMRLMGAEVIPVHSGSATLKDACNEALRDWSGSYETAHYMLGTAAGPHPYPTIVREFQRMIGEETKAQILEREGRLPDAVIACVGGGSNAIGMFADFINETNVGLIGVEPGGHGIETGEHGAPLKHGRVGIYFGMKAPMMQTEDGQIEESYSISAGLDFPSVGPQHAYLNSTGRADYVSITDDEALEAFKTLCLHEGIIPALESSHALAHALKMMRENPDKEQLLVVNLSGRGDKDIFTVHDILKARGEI
Sequence (P0A877 whole entry, further chain): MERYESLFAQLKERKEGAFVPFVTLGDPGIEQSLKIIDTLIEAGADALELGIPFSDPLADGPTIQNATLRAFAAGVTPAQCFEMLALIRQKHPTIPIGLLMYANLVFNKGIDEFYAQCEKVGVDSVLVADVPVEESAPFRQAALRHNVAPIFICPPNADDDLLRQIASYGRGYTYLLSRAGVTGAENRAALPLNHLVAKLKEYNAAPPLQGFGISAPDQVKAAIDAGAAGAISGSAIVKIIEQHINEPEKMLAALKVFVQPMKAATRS
Test: Activity of immobilized tryptophan synthase source after standing in aqueous solutions of organic impurities
Assay type: biochemical, Escherichia coli MT-10232 (FERM BP-19)
Settings: 24 h; impurity 1000 ppm, 30° C., pH 8.5; ratio to enzyme left in reference solution; read-out: Activity Ratio 24 Hours Later

>  <Compound>
Nc1ccccc1 [Aniline]

>  <activity at 1000 µg/mL / %>
100

$$$$
>  <Compound>
Cc1ccccc1N [o-toluidine]

>  <activity at 1000 µg/mL / %>
88

$$$$
>  <Compound>
CCNc1ccccc1 [N-ethylaniline]

>  <activity at 1000 µg/mL / %>
100

$$$$
>  <Compound>
CCc1ccccc1N [o-ethylaniline]

>  <activity at 1000 µg/mL / %>
71

$$$$

This collection of values is drawn from patent US5085991A.
